- Test system: Vibrio cholerae
- Test Details: Antimicrobial activity against Vibrio cholerae incubated for 16 to 18 hrs by macrodilution method
- Format: functional
Reported values of MIC for individual entries
Result Type: MIC (µM)

{"columns": ["Compound", "Subject Of Test", "Reported Measurement"],
 "data": [
  ["OC(CNC1CCCCC1)Cn1c2ccc(Cl)cc2c2cc(Cl)ccc21 (centres undefined)", "Vibrio cholerae", 6.25],
  ["CC(C)CCNCC(O)Cn1c2ccc(Cl)cc2c2cc(Cl)ccc21 (centres undefined)", "Vibrio cholerae", 6.25],
  ["CCC(CC)CNCC(O)Cn1c2ccc(Cl)cc2c2cc(Cl)ccc21 (centres undefined)", "Vibrio cholerae", 6.25],
  ["OCC(CO)(CO)NCC(O)Cn1c2ccc(Cl)cc2c2cc(Cl)ccc21 (racemic)", "Vibrio cholerae", 50]
]}

====

Below, each of the compounds is paired with its reported MIC value.
- Tested on: Acinetobacter baumannii
- Test Details: Antimicrobial activity against Acinetobacter baumannii incubated for 16 to 18 hrs by macrodilution method
- Format: functional

{"columns": ["Compound", "Subject Of Test", "Unit Info", "MIC"],
 "data": [
  ["OC(CNC1CCCCC1)Cn1c2ccc(Cl)cc2c2cc(Cl)ccc21 (centres undefined)", "Acinetobacter baumannii", "µM", 25],
  ["CCC(CC)CNCC(O)Cn1c2ccc(Cl)cc2c2cc(Cl)ccc21 (centres undefined)", "Acinetobacter baumannii", "µM", 25],
  ["OCC(CO)(CO)NCC(O)Cn1c2ccc(Cl)cc2c2cc(Cl)ccc21 (racemic)", "Acinetobacter baumannii", "µM", 200],
  ["CC(C)CCNCC(O)Cn1c2ccc(Cl)cc2c2cc(Cl)ccc21 (centres undefined)", "Acinetobacter baumannii", "µM", 12.5]
]}

====

- Tested on: Escherichia coli
- Test Details: Antimicrobial activity against Escherichia coli BW25113 expressing delta-tolC gene incubated for 16 to 18 hrs by macrodilution method
- Format: functional
Decision: MIC beneath 20 µM gives YES; MIC meeting or exceeding 20 µM gives NO.

{"columns": ["Compound", "Subject Of Test", "Assigned Label"],
 "data": [
  ["CC(C)CCNCCCn1c2ccc(Cl)cc2c2cc(Cl)ccc21", "Escherichia coli", "YES"],
  ["CC(C)(C)NCC(O)Cn1c2ccc(Cl)cc2c2cc(Cl)ccc21 (stereo unspecified)", "Escherichia coli", "NO"],
  ["OC(CNC1CCCCC1)Cn1c2ccc(Cl)cc2c2cc(Cl)ccc21 (stereo unspecified)", "Escherichia coli", "YES"],
  ["CO[C@@H]1[C@@H](OC(N)=O)[C@@H](O)[C@H](Oc2ccc3c(O)c(NC(=O)c4ccc(O)c(CC=C(C)C)c4)c(=O)oc3c2C)OC1(C)C", "Escherichia coli", "YES"],
  ["CCC(CC)NCC(O)Cn1c2ccc(Cl)cc2c2cc(Cl)ccc21 (stereo unspecified)", "Escherichia coli", "YES"],
  ["CC(C)CCNCC(O)Cn1c2ccc(Cl)cc2c2cc(Cl)ccc21 (stereo unspecified)", "Escherichia coli", "YES"],
  ["CC(CO)(CO)NCC(O)Cn1c2ccc(Cl)cc2c2cc(Cl)ccc21 (stereo unspecified)", "Escherichia coli", "NO"],
  ["OCC(CO)(CO)NCC(O)Cn1c2ccccc2c2ccccc21 (stereo unspecified)", "Escherichia coli", "NO"],
  ["CCC(CC)CNCC(O)Cn1c2ccc(Cl)cc2c2cc(Cl)ccc21 (stereo unspecified)", "Escherichia coli", "YES"],
  ["CCCCCNCC(O)Cn1c2ccc(Cl)cc2c2cc(Cl)ccc21 (stereo unspecified)", "Escherichia coli", "YES"],
  ["OCC(CO)(CO)NCC(O)Cn1ccc2cc(Cl)ccc21 (stereo unspecified)", "Escherichia coli", "NO"]
]}

Where do the numbers come from? From ChEMBL document CHEMBL3576856.
